System: OVCAR-5
test.protocol: NCI tumour cell line growth inhibition, 48 h
Calls of active or inactive are those of the source. Rule as the data show it: active = GI50 up to about 1.1 µM and inactive = higher.
Possible outcomes: yes (active), no (inactive)

[
  {
    "compound": "Cc1[nH]c2ccccc2c1C1Cc2ccccc2N1C(=O)/C=C\\C(=O)O (centres undefined)",
    "label.value": "no"
  },
  {
    "compound": "CCOc1ccc(C2c3[nH]c4ccccc4c3CCN2C(=O)c2cccs2)cc1 (centres undefined)",
    "label.value": "no"
  },
  {
    "compound": "C[n+]1cc2cc(O)c(O)cc2c2ccc3cc(O)c(O)cc3c21.c1ccncc1",
    "label.value": "no"
  },
  {
    "compound": "CN(C)c1ccc(/C=C2\\C[C@H]3[C@@H]4CC=C5C[C@@H](O)CC[C@]5(C)[C@H]4CC[C@]3(C)C2=O)cc1",
    "label.value": "no"
  },
  {
    "compound": "CCOC(=O)c1nc2ccc(C(F)(F)F)cc2nc1Nc1cc(OC)c(OC)c(OC)c1",
    "label.value": "no"
  },
  {
    "compound": "CC(C)(C)C(=O)Oc1ccc(/C=C/C(=O)c2ccc(OC(=O)C(C)(C)C)cc2)cc1",
    "label.value": "no"
  },
  {
    "compound": "CC1(C)CC[C@]2(C)[C@@H](O)C[C@]3(C)C(=CC[C@@H]4[C@@]5(C)CC[C@H](O)C(C)(C)[C@@H]5CC[C@]43C)[C@@H]2C1",
    "label.value": "no"
  },
  {
    "compound": "CCOP(=O)(OCC)C(C)(CC)NC (centres undefined)",
    "label.value": "no"
  },
  {
    "compound": "COC(=O)C1=C(O)C(C(=O)OC)[C@@]2(O)[C@@H](C(=O)OC)[C@H](C)C[C@@H]1[C@@H]2C(=O)OC (some centres undefined)",
    "label.value": "no"
  },
  {
    "compound": "CC(=O)OCC(=O)[C@@]12OC(C)(C)O[C@@H]1C[C@H]1[C@@H]3CC(C=O)=C4C=C(OCCCl)CC[C@]4(C)[C@@]3(F)[C@@H](O)C[C@@]12C [FORMOCORTAL]",
    "label.value": "no"
  },
  {
    "compound": "O=c1c2cc([N+](=O)[O-])ccc2[nH]n1Cc1ccccn1",
    "label.value": "no"
  },
  {
    "compound": "CCCCCCCCCCCCCCCCCCN(C)CC(COP(=O)([O-])OCC[N+](C)(C)C)OC (centres undefined)",
    "label.value": "no"
  },
  {
    "compound": "Cc1ccc(Nc2nc(=O)c3c4ccccc4n(C(=O)OC(C)(C)C)c3s2)cc1",
    "label.value": "no"
  },
  {
    "compound": "CCO[C@@H]1OC(=O)[C@](C)(C(C)=O)[C@@H]1C",
    "label.value": "no"
  },
  {
    "compound": "COC(=O)C1CCC(=S)N1C(C)=O (centres undefined)",
    "label.value": "no"
  },
  {
    "compound": "CC(=O)/C(=C/n1ccc(=O)[nH]c1=S)C(=O)Nc1ccccc1C",
    "label.value": "no"
  },
  {
    "compound": "O=C(N/N=C/C=C/c1ccc([N+](=O)[O-])o1)c1ccc(C(=O)N/N=C/C=C/c2ccc([N+](=O)[O-])o2)cc1",
    "label.value": "no"
  },
  {
    "compound": "COC1C(O)=C2C(=O)OC(C)(O)/C=C/C=C\\C=C/C=C/C(c3ccccc3)NC(=O)/C=C/C=C/C=C/C=C/C2(C)C1O (centres undefined)",
    "label.value": "yes"
  },
  {
    "compound": "COc1ccc(S(=O)(=O)Nc2ccccc2C(=O)O)cc1",
    "label.value": "no"
  },
  {
    "compound": "COC1(OC)CC2OC1C1N=NN(C(=O)OC(C)(C)C)C21 (centres undefined)",
    "label.value": "no"
  },
  {
    "compound": "COc1ccc(C2=Nn3c(nnc3-c3ccccc3)S/C2=C\\c2ccc(-c3ccc([N+](=O)[O-])cc3)o2)cc1",
    "label.value": "no"
  },
  {
    "compound": "N=C(N)NCCCC(NC(=O)c1c2ccccc2nc2ccccc12)C(=O)O (centres undefined)",
    "label.value": "no"
  },
  {
    "compound": "CCOC(=O)/C(C#N)=C/c1ccc(CO)o1",
    "label.value": "no"
  },
  {
    "compound": "O=NC1C(Cl)C2CC1C1C(Br)C(Br)CC21 (centres undefined)",
    "label.value": "no"
  },
  {
    "compound": "C[C@H](CCC(=O)NCC(=O)O)[C@H]1CC[C@H]2[C@@H]3[C@H](O)C[C@@H]4C[C@H](O)CC[C@]4(C)[C@H]3CC[C@]12C",
    "label.value": "no"
  },
  {
    "compound": "O=S1(=O)C[C@H](NCc2ccccc2)[C@H](NCc2ccccc2)C1",
    "label.value": "no"
  },
  {
    "compound": "O=C(CC1C=CCS1(=O)=O)NCc1ccccc1 (centres undefined)",
    "label.value": "no"
  },
  {
    "compound": "COc1c(-c2ccccc2)nc2ccc(Oc3ccccc3)nn12",
    "label.value": "no"
  },
  {
    "compound": "C=C=C(C)[Si](C)(C)C",
    "label.value": "no"
  }
]

Data origin, for the record: ChEMBL document CHEMBL1201862
